Test system: U2OS
TEST DETAILS: Multiplex assay against U2OS
Type: toxicity, cell-based
ASSAY CONDITIONS: human, 48 h, 10 µM, compound concentration 10 uM, replicate 1
QUANTITY: Population Fragmented Nuclei (%)
Numeric answer only, unit % assumed.

Worked cases, answers included:
COMPOUND	QUANTITY	ENDPOINT VALUE
CN1CCN2c3ccccc3Cc3ccccc3C2C1.Cl (stereo not given) [MIANSERIN HYDROCHLORIDE]	Population Fragmented Nuclei (%)	18
Cn1cc(C(=O)OCC2CCN(CCNS(C)(=O)=O)CC2)c2ccccc21	Population Fragmented Nuclei (%)	30
CSc1nc(NC2CCCC2)c([N+](=O)[O-])c(NC2CCCC2)n1	Population Fragmented Nuclei (%)	23

As a next step, examine the compound that follows.
# Population Fragmented Nuclei (%) of CC(C)(C)c1ccc(CSc2cnn(C(C)(C)C)c(=O)c2Cl)cc1 = 20

----------
Tested on: U2OS
TEST DETAILS: Multiplex assay against U2OS
Assay type: toxicity, cell-based
ASSAY CONDITIONS: human, 12 h, 10 µM, compound concentration 10 uM, replicate 1
QUANTITY: Total Cell Count
Would you mind answering with just the numeric figure?

Use the examples below as a reference point.
>>> print(df.to_string())
                                   molecule  study_target  endpoint_value
0  Cc1sc2c(c1C)C(c1ccc(Cl)cc1)=N[C@H](CC(=O)OC(C)(C)C)c1nnc(C)n1-2          U2OS             240
1  CN(C)C/C=C/C(=O)Nc1ccc(C(=O)N2CCCC(Nc3ncc(Cl)c(-c4c[nH]c5ccccc45)n3)C2)cc1 (configuration not stated)          U2OS             233
2  CC(C)(C)c1ccc(CSc2cnn(C(C)(C)C)c(=O)c2Cl)cc1 [PYRIDABEN]          U2OS             209
3  O=c1nc2[nH]c3ccccc3nc-2c(=O)[nH]1 [ALLOXAZINE]          U2OS             212
4  COCCCN1CCC(NC(=O)c2cc(Cl)c(N)c3c2OCC3)CC1 [PRUCALOPRIDE]          U2OS             238
5   OCCCNc1cc(-c2ccnc(Nc3cccc(Cl)c3)n2)ccn1          U2OS             237

Data point: CC(C)(O)C(=O)N1CCN(c2ccc(C(F)(F)F)c(C3=C(c4c[nH]c5ccccc45)C(=O)NC3=O)c2)CC1 ; Total Cell Count = 166

----------
Test system: Fibroblast
TEST DETAILS: Multiplex assay against human fibroblast
Format: toxicity, cell-based
ASSAY CONDITIONS: 24 h, 10 µM, compound concentration 10 uM, replicate 2
Each record here notes measured Population Apoptotic (%).
All answers are understood in %, so give the number only.

Here are 3 compounds together with their reported answers.
>>> print(df.to_string())
                              record_smiles  endpoint_value
0  CC(C)C[C@H](CO)Nc1nc(S[C@@H](C)c2ccccc2)nc2nc(N)sc12              33
1      Nc1nc(-c2ccco2)c2cnn(Cc3ccccc3F)c2n1              43
2  Cc1sc2c(c1C)C(c1ccc(Cl)cc1)=N[C@H](CC(=O)OC(C)(C)C)c1nnc(C)n1-2              51

As a next step, examine the compound that follows.
Value of measured Population Apoptotic (%) for the entry C[C@H](NC(=O)CNC(=O)c1cccc(Cl)c1)c1ccccc1 : 56

----------
Tested on: Fibroblast
TEST DETAILS: Multiplex assay against human fibroblast
Format: toxicity, cell-based
ASSAY CONDITIONS: 12 h, 10 µM, compound concentration 10 uM, replicate 2
Classify: criterion met when Population Apoptotic (%) is strictly less than 40%; criterion not met when Population Apoptotic (%) is not.

For orientation, consider the following solved cases.
                                   compound  study_target              group
0      Nc1nc(-c2ccco2)c2cnn(Cc3ccccc3F)c2n1    Fibroblast  criterion not met
1  CSc1nc(NC2CCCC2)c([N+](=O)[O-])c(NC2CCCC2)n1    Fibroblast      criterion met
2  CC(C)C[C@H](CO)Nc1nc(S[C@@H](C)c2ccccc2)nc2nc(N)sc12    Fibroblast      criterion met
3          COc1ccc2[nH]c(I)c(CCNC(C)=O)c2c1    Fibroblast      criterion met
4  CCCCC[C@H](O)/C=C/[C@H]1[C@H](O)CC(=O)[C@@H]1CCCCCCC(=O)O    Fibroblast      criterion met

Is 40% strictly greater than the compound's reported Population Apoptotic (%)? compound: O=c1ccc2ccc(OCCCCN3CCN(c4cccc5sccc45)CC3)cc2[nH]1
criterion not met

Hello, is Population Apoptotic (%) of the following compound strictly smaller than 40%? COCCCN1CCC(NC(=O)c2cc(Cl)c(N)c3c2OCC3)CC1 [PRUCALOPRIDE]
criterion met

----------
Test system: HEK-293T
TEST DETAILS: Multiplex assay against HEK293T
Assay type: toxicity, cell-based
ASSAY CONDITIONS: human, 12 h, 1 µM, compound concentration 1 uM, replicate 1
Non-standard residues stand in square brackets, D forms with d. Residues, ends and D or L forms follow the SMILES beside them.
We begin with a simple list: items and their reported Population Pyknosed Nuclei (%).
# unit: % | format: bare number

COMPOUND	ENDPOINT VALUE
COc1cc(OC2CCN(C(C)=O)CC2)ccc1C(=O)N1CCC(N2C(=O)OCc3ccccc32)CC1	11
CN1CCC(C(=O)c2cccc(NC(=O)c3c(F)cc(F)cc3F)n2)CC1	11
O=C(O)CCC/C=C\CC1C(O)CC(O)C1/C=C/C(O)COc1cccc(Cl)c1 (configuration not stated)	10
Nc1nc(-c2ccco2)c2cnn(Cc3ccccc3F)c2n1	16
Cn1cc(C(=O)OCC2CCN(CCNS(C)(=O)=O)CC2)c2ccccc21	10

Entry under test: C=CCN1C[C@H](C(=O)N(CCCN(C)C)C(=O)NCC)C[C@@H]2c3cccc4[nH]cc(c34)C[C@H]21 . Its Population Pyknosed Nuclei (%) was 18

Please fill in: Population Pyknosed Nuclei (%) reported for Cc1nn(C)c2nc(NNC(=O)Nc3cc(Cl)nc(Cl)c3)cc(C(C)C)c12 = 16

GET /value?item= OCCCNc1cc(-c2ccnc(Nc3cccc(Cl)c3)n2)ccn1 &field=Population Pyknosed Nuclei (%) returns 24

Population Pyknosed Nuclei (%) in this record for CCCCC[C@H](O)/C=C/[C@H]1[C@H](O)CC(=O)[C@@H]1CCCCCCC(=O)O : 13

Record CC(C)C[C@@H]1NC(=O)[C@@H](C(C)C)NC(=O)[C@@H]2CCCN2C(=O)[C@@H](CC(=O)O)NC(=O)[C@@H](Cc2c[nH]c3ccccc23)NC1=O [BQ-123] (cyclo(L[dW][dD]P[dV])) . Reported Population Pyknosed Nuclei (%): 11

----------
Tested on: Fibroblast
TEST DETAILS: Multiplex assay against human fibroblast
Assay type: toxicity, cell-based
ASSAY CONDITIONS: 48 h, 1 µM, compound concentration 1 uM, replicate 1
Non-standard residues stand in square brackets, D forms with d. Residues, ends and D or L forms follow the SMILES beside them.
QUANTITY: Population Normal (%)
The reply should contain only the number, in %.

MOLECULE	STUDY TARGET	ENDPOINT VALUE
Cl.Cl.OCCOCCN1CCN(C(c2ccccc2)c2ccc(Cl)cc2)CC1 (stereo not given) [HYDROXYZINE HYDROCHLORIDE]	Fibroblast	95
CCCCC[C@H](O)/C=C/[C@H]1[C@H](O)CC(=O)[C@@H]1CCCCCCC(=O)O	Fibroblast	98
CSc1nc(NC2CCCC2)c([N+](=O)[O-])c(NC2CCCC2)n1	Fibroblast	95
CN1C[C@H](C(=O)N[C@]2(C)O[C@@]3(O)[C@@H]4CCCN4C(=O)[C@H](Cc4ccccc4)N3C2=O)C[C@@H]2c3cccc4[nH]cc(c34)C[C@H]21.CS(=O)(=O)O [DIHYDROERGOTAMINE MESYLATE]	Fibroblast	98
C[C@H](NC(=O)CNC(=O)c1cccc(Cl)c1)c1ccccc1	Fibroblast	98

Entry CC(C)(O)C(=O)N1CCN(c2ccc(C(F)(F)F)c(C3=C(c4c[nH]c5ccccc45)C(=O)NC3=O)c2)CC1 under Fibroblast had Population Normal (%) of 94

With Fibroblast as the test system, C=CCN1C[C@H](C(=O)N(CCCN(C)C)C(=O)NCC)C[C@@H]2c3cccc4[nH]cc(c34)C[C@H]21 showed Population Normal (%) of 94

For the molecule CC(C)C[C@@H]1NC(=O)[C@@H](C(C)C)NC(=O)[C@@H]2CCCN2C(=O)[C@@H](CC(=O)O)NC(=O)[C@@H](Cc2c[nH]c3ccccc23)NC1=O [BQ-123] (cyclo(L[dW][dD]P[dV])) , the measured Population Normal (%) on Fibroblast was 96

// assay Fibroblast, entry COc1cc(C(=O)N2CC[C@@H](O)[C@@H](N)C2)cc2nc(-c3cc4ccccc4n3CC3CC3)n(C)c12.Cl , Population Normal (%) value = 93

GET /values?item= Cc1cc(NC(=O)NCCN2CCC(O)(Cc3ccccc3)CC2)c2ccccc2n1 &system= Fibroblast returns Population Normal (%): 96
